System: E. coli TESEC Mtb Alr
test.protocol: growth (OD600 after 10 h); higher = more growth (less inhibition)
test.conditions: arabinose 1000000 nM; compound 0.1 mM; raw OD600 reference: median of DMSO wells 0.193, cell-free background 0.041
Where a name gives a salt, the structure may show the parent alone.
growth: recorded values

{"compound": "O=C(O)c1ccccc1C(=O)Nc1ccc(S(=O)(=O)Nc2nccs2)cc1 [Phthalylsulfathiazole]", "experimental.target": "E. coli TESEC Mtb Alr", "growth": 0.184}
{"compound": "CCOC(=O)NNc1nncc2ccccc12 [Todralazine hydrochloride]", "experimental.target": "E. coli TESEC Mtb Alr", "growth": 0.181}
{"compound": "CCCNCC(O)COc1ccccc1C(=O)CCc1ccccc1 (stereo not given) [Propafenone hydrochloride]", "experimental.target": "E. coli TESEC Mtb Alr", "growth": 0.124}
{"compound": "CCc1cc(C(N)=S)ccn1 [Ethionamide]", "experimental.target": "E. coli TESEC Mtb Alr", "growth": 0.184}
{"compound": "CC(C)N1CCN(c2ccc(OCC3COC(Cn4cncn4)(c4ccc(Cl)cc4Cl)O3)cc2)CC1 (stereo not given) [Terconazole]", "experimental.target": "E. coli TESEC Mtb Alr", "growth": 0.205}

* * *

System: E. coli TESEC Mtb Alr
test.protocol: growth (OD600 after 10 h); higher = more growth (less inhibition)
test.conditions: arabinose 1000 nM; compound 0.1 mM; raw OD600 reference: median of DMSO wells 0.294, cell-free background 0.041
Where a name gives a salt, the structure may show the parent alone.

{"compound": "CC(=O)OCC(CCn1cnc2cnc(N)nc21)COC(C)=O", "growth": 0.288}
{"compound": "Cc1cc(C(C)(C)C)c(O)c(C)c1CC1=NCCN1 [Oxymetazoline hydrochloride]", "growth": 0.302}
{"compound": "COc1cccc2c1C(=O)c1c(O)c3c(c(O)c1C2=O)C[C@@](O)(C(=O)CO)C[C@@H]3O[C@H]1C[C@H](N)[C@H](O)[C@H](C)O1 [Doxorubicin hydrochloride]", "growth": 0.0479}
{"compound": "C[N+]1(CCCCC[N+]2(C)CCCC2)CCCC1 [Pentolinium bitartrate]", "growth": 0.282}
{"compound": "CN1C2CCCC1CC(NC(=O)c1nn(C)c3ccccc13)C2 (stereo not drawn)", "growth": 0.301}
{"compound": "C#Cc1cccc(Nc2ncnc3cc(OCCOC)c(OCCOC)cc23)c1", "growth": 0.256}
{"compound": "Clc1ccccc1C(c1ccccc1)(c1ccccc1)n1ccnc1", "growth": 0.0415}
{"compound": "CCN(CC)CCCC(C)Nc1c2ccc(Cl)cc2nc2ccc(OC)cc12 (stereo not drawn) [Quinacrine dihydrochloride hydrate]", "growth": 0.0775}

* * *

Test system: E. coli TESEC Mtb Asd
test.protocol: growth (OD600 after 10 h); higher = more growth (less inhibition)
test.conditions: arabinose induction (level): High; compound 0.1 mM; raw OD600 reference: median of DMSO wells 0.331, cell-free background 0.041
Where a name gives a salt, the structure may show the parent alone.

{"compound": "CC[N+](CC)(CC)CCC(O)(c1ccccc1)C1CCCCC1 (stereo not drawn) [Tridihexethyl chloride]", "experimental.target": "E. coli TESEC Mtb Asd", "growth": 0.349}
{"compound": "CC(=O)N(O)CCCCCNC(=O)CCC(=O)N(O)CCCCCNC(=O)CCC(=O)N(O)CCCCCN [Deferoxamine mesylate]", "experimental.target": "E. coli TESEC Mtb Asd", "growth": 0.139}
{"compound": "COC(=O)C1=C(C#N)NC(C)=C(C(=O)OC(C)C)C1c1cccc([N+](=O)[O-])c1 (stereo not drawn)", "experimental.target": "E. coli TESEC Mtb Asd", "growth": 0.16}
{"compound": "CCN(CC)C(=S)SSC(=S)N(CC)CC", "experimental.target": "E. coli TESEC Mtb Asd", "growth": 0.192}
{"compound": "CN1C2CCCC1CC(NC(=O)c1nn(C)c3ccccc13)C2 (stereo not drawn)", "experimental.target": "E. coli TESEC Mtb Asd", "growth": 0.28}
{"compound": "CC(C)(CO)C(O)C(=O)NCCCO (stereo not drawn)", "experimental.target": "E. coli TESEC Mtb Asd", "growth": 0.357}
{"compound": "N=C(N)c1ccc(OCCCCCOc2ccc(C(=N)N)cc2)cc1 [Pentamidine isethionate]", "experimental.target": "E. coli TESEC Mtb Asd", "growth": 0.0804}
{"compound": "Cc1cccc(Nc2ccncc2S(=O)(=O)NC(=O)NC(C)C)c1 [Torsemide]", "experimental.target": "E. coli TESEC Mtb Asd", "growth": 0.228}
{"compound": "CCOC(=O)[N-]c1c[n+](N2CCOCC2)no1", "experimental.target": "E. coli TESEC Mtb Asd", "growth": 0.305}
{"compound": "Cc1cc(C(=O)NNCc2ccccc2)no1", "experimental.target": "E. coli TESEC Mtb Asd", "growth": 0.492}
{"compound": "O=C(O)CCC(=O)Nc1ccc(S(=O)(=O)Nc2nccs2)cc1", "experimental.target": "E. coli TESEC Mtb Asd", "growth": 0.447}
{"compound": "CCCCC(C)(O)C/C=C/[C@H]1[C@H](O)CC(=O)[C@@H]1CCCCCCC(=O)OC (mixture of isomers)", "experimental.target": "E. coli TESEC Mtb Asd", "growth": 0.35}
{"compound": "CN1CCN(CCCN2c3ccccc3Sc3ccc(S(=O)(=O)N(C)C)cc32)CC1 [Thioproperazine dimesylate]", "experimental.target": "E. coli TESEC Mtb Asd", "growth": 0.171}
{"compound": "C[C@]12CCC(=O)C=C1CC[C@@H]1[C@@H]2C(=O)C[C@@]2(C)[C@H]1CC[C@]2(O)C(=O)CO", "experimental.target": "E. coli TESEC Mtb Asd", "growth": 0.396}
{"compound": "CN1C(=O)OC(C)(C)C1=O", "experimental.target": "E. coli TESEC Mtb Asd", "growth": 0.297}
{"compound": "CC[N+](C)(C)Cc1ccccc1Br [Bretylium tosylate]", "experimental.target": "E. coli TESEC Mtb Asd", "growth": 0.484}
{"compound": "COc1ccc2c(c1)C(=O)N(CCc1ccc(S(=O)(=O)NC(=O)NC3CCCCC3)cc1)C(=O)C2(C)C", "experimental.target": "E. coli TESEC Mtb Asd", "growth": 0.126}
{"compound": "CC/C(=C(\\c1ccccc1)c1ccc(OCCN(C)C)cc1)c1ccccc1 [Tamoxifen citrate]", "experimental.target": "E. coli TESEC Mtb Asd", "growth": 0.0517}

All values here come from the supplement of paper PMC9262897.
